Biological target: DPP 8 (Homo sapiens, UniProt Q6V1X1)
Sequence (Q6V1X1 whole entry): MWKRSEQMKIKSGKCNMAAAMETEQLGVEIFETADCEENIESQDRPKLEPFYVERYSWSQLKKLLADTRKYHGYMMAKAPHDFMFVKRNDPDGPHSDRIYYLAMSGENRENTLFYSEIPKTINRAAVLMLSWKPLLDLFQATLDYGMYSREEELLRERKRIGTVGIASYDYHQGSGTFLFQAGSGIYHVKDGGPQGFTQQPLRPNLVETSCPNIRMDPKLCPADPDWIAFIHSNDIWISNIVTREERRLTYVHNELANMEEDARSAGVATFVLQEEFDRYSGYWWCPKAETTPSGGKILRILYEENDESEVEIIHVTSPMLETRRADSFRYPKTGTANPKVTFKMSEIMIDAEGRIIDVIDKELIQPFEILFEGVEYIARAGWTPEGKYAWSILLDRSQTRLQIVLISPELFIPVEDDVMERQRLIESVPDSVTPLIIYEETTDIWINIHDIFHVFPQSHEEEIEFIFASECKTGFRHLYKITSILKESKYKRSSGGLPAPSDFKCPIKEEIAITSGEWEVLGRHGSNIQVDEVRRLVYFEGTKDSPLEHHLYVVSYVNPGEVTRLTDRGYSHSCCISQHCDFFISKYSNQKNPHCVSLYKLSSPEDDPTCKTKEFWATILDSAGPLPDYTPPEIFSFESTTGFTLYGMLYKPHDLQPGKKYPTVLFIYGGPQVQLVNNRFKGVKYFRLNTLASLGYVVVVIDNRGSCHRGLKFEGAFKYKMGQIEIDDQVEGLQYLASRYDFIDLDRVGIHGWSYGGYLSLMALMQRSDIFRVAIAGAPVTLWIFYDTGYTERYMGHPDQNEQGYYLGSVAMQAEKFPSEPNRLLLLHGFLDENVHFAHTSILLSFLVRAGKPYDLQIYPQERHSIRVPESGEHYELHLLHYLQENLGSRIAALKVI
Where a name gives a salt, the structure may show the parent alone.
MEASUREMENT_KIND: IC50 (µM)
// note: answer is a bare numeric in µM

Report IC50 on DPP 8 (Homo sapiens, UniProt Q6V1X1) for this entry: CC#CCn1c(N2CCC[C@@H](N)C2)nc2c1c(=O)n(Cc1ncccc1C#N)c(=O)n2C [monohydrochloride]
95

---

Biological target: plasma DPP IV (Rattus norvegicus)
Sequence (P14740 37-767 limits assumed): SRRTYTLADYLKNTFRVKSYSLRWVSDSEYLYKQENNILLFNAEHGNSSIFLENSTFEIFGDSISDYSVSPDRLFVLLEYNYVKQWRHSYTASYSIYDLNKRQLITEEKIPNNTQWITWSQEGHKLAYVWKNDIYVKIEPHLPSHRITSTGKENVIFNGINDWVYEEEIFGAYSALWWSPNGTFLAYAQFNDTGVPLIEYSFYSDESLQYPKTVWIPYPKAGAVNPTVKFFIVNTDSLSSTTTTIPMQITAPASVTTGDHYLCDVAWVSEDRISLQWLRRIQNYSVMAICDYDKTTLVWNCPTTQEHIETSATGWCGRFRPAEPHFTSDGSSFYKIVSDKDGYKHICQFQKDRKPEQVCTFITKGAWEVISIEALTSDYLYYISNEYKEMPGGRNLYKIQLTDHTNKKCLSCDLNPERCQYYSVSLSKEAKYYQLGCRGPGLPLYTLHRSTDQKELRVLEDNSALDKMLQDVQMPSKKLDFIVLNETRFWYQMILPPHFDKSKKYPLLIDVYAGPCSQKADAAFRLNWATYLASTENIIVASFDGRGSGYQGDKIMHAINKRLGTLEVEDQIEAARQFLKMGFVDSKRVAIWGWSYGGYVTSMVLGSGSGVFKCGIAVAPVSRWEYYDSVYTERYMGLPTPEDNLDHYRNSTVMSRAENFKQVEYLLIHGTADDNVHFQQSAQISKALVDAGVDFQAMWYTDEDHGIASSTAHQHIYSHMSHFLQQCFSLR
Experiment: Inhibition of plasma DPP IV activity in vitro, rat plasma
Where a name gives a salt, the structure may show the parent alone.
MEASUREMENT_KIND: IC50

Give the value of IC50 reported for the following: CC#CCn1c(N2CCC[C@@H](N)C2)nc2c1c(=O)n(Cc1ncccc1C#N)c(=O)n2C [monohydrochloride]
~0.8 nM

The measured values listed here are drawn from patent US20140228287A1.
